// note: IC50 values for Tyrosine-protein kinase TXK (Homo sapiens, UniProt P42681) were reported in different studies

Consider the following illustrative entries.
Compound	IC50
C=CC(=O)N1CC[C@]2(C1)C[C@H](n1c(NC(=O)c3ccc(C)s3)nc3ccccc31)C2	2.16 nM
C=CC(=O)N1CCC[C@@H](Nc2nnc(C(N)=O)c(Nc3ccc(-n4nccn4)cc3)n2)C1	≤ 10 nM
O=C(CNc1cc(Cl)cc(Cl)c1)N1CC2CC(Nc3ncnc4[nH]ccc34)C1C2 (stereo not shown)	> 10000 nM

# input for lookup
# IC50 measured on Tyrosine-protein kinase TXK (Homo sapiens, UniProt P42681) for item "C=CC(=O)N1CC[C@]2(C1)C[C@H](n1c(NC(=O)c3ccc(=O)[nH]c3)nc3ccccc31)C2" = 1.98 nM

====

From various publications: IC50 for Tyrosine-protein kinase TXK (Homo sapiens, UniProt P42681).
I'd appreciate it if you marked entries Fulfilled when IC50 is lower than 1 nM and Not fulfilled when it is not.

Compound structure	Assigned category
C=CC(=O)N1CC[C@]2(C1)C[C@H](n1c(NC(=O)c3cc(C4CCC4)no3)nc3cc(CN4CCCC4)ccc31)C2	Not fulfilled
CC#CC(=O)N1CCC[C@H]1c1nc(-c2ccc(OCc3ccccc3)cc2)c2c(N)nccn12	Not fulfilled
C=CC(=O)N1CC[C@]2(C1)C[C@H](n1c(NC(=O)c3ccc(-c4ccc(N)nc4)s3)nc3ccccc31)C2	Not fulfilled
COC/C=C/C(=O)N[C@@H](C)c1nc(-c2ccc(C(=O)Nc3ccc(C)cn3)c(OC)c2)c2c(N)nccn12	Not fulfilled
C=CC(=O)N1CC[C@]2(C1)C[C@@H](n1c(NC(=O)c3ccc(-c4cnco4)s3)nc3ccc(CN4CCCC4)cc31)C2	Not fulfilled

API: the following record is the query input.
Could you please tell me whether IC50 recorded for "C=CC(=O)N1CC[C@]2(C1)C[C@H](n1c(NC(=O)c3cccnc3)nc3cc(CN[C@@H](C)C(C)(C)C)ccc31)C2" is less than 1 nM? Not fulfilled

====

pIC50 for Tyrosine-protein kinase TXK (Homo sapiens, UniProt P42681), merged from several publications.
pIC50: −log10 of the molar value.

As a guide, the following entries are already answered.
Compound	pIC50
C=CC(=O)N1CCC[C@@H](Nc2nnc(C(N)=O)c(Nc3ccc(-c4ncccn4)cc3)n2)C1	≥ 8.00
CC#CC(=O)N1CC[C@@H](n2nc(-c3ccc(Oc4ccccc4)cc3)c3cncnc32)C1	< 6.30

Record "C=CC(=O)N1CCC2(CC1)CC(n1nc(-c3ccc(Oc4ccccc4)cc3)c3cncnc31)C2" . Reported pIC50: < 6.30

Reported pIC50 of "C=CC(=O)N1CC(Cn2nc(-c3ccc(Oc4ccccc4)cc3)c3cncnc32)C1" : 6.30 to 7.00

pIC50 reading for "C=CC(=O)N1CC[C@]2(C1)C[C@H](n1c(NC(=O)c3cc(C)no3)nc3cc(CN4CCN(C)CC4)ccc31)C2" : 8.46

Lab note: measured pIC50 of "C=CC(=O)N1CCC[C@@H](Nc2nnc(C(N)=O)c(Nc3ccc(-c4nccs4)cc3)n2)C1" was ≥ 8.00

====

Across several publications, the following pIC50 results were reported for Tyrosine-protein kinase TXK (Homo sapiens, UniProt P42681).
When answering, recall that pIC50 equals minus log10 of the concentration in mol/L, and write that number alone.

Compound structure	Assay system	Measurement label	Reported value
C=CC(=O)N1CC[C@]2(C1)C[C@H](n1c(NC(=O)c3ccc(-c4cnco4)s3)nc3cc(Cl)ccc31)C2	Tyrosine-protein kinase TXK (Homo sapiens, UniProt P42681)	pIC50	9.43
CC#CC(=O)N1CCC[C@H]1c1nc(-c2ccc(C(=O)Nc3cc(C(F)(F)F)ccn3)c(OC)c2)c2c(N)nccn12	Tyrosine-protein kinase TXK (Homo sapiens, UniProt P42681)	pIC50	7.80
C=CC(=O)N1CC[C@]2(C1)C[C@H](n1c(NC(=O)c3ccc(-c4cnco4)s3)nc3cc(N(C)C(=O)[C@H](C)N4CCOCC4)ccc31)C2	Tyrosine-protein kinase TXK (Homo sapiens, UniProt P42681)	pIC50	9.36
C=CC(=O)Nc1cc(NS(C)(=O)=O)cc(-c2cnc3ccccc3n2)c1	Tyrosine-protein kinase TXK (Homo sapiens, UniProt P42681)	pIC50	6.84

Just so you know, measured pIC50 for "C=CC(=O)N1CC[C@]2(C1)C[C@H](n1c(NC(=O)c3ccc(-c4ccnc(CO)c4)s3)nc3ccccc31)C2" came out at 9.66

get_value(item= "C=CC(=O)N1CC[C@]2(C1)C[C@H](n1c(NC(=O)c3ccc(-c4cnco4)s3)nc3cc(N(C)C(C)=O)ccc31)C2" , readout=pIC50) returns 9.41

====

pIC50: −log10 of the molar value.
Across several studies, compounds have been characterized by their pIC50 on Tyrosine-protein kinase TXK (Homo sapiens, UniProt P42681); a selection follows.

Use these answered entries as a reference point.
Compound structure	Reported value
C=CC(=O)N1CCC[C@@H](Nc2nnc(C(N)=O)c(Nc3ccc(C4(C#N)CCCC4)cc3)n2)C1	≥ 8.00
CC#CC(=O)N1CCC(Cn2nc(-c3ccc(Oc4ccccc4)cc3)c3cncnc32)CC1	< 6.30
C=CC(=O)N1CCC[C@@H](c2nc(-c3ccc(Oc4ccccc4)cc3)c3cnccn23)C1	> 7.00
C=CC(=O)N1CC[C@]2(C1)C[C@H](n1c(NC(=O)c3ccc(Oc4ccccc4)nc3)nc3ccccc31)C2	8.36
COCC#CC(=O)N1CC2(CC(n3nc(-c4ccc(Oc5ccccc5)cc4)c4cncnc43)C2)C1	> 7.00
CC#CC(=O)N1CCC2(CC1)CC(n1nc(-c3ccc(Oc4ccccc4)cc3)c3cncnc31)C2	< 6.30

Continue with the compound presented below.
Tyrosine-protein kinase TXK (Homo sapiens, UniProt P42681) assay, compound "C#Cc1ccc(C(=O)Nc2nc3cc(CN[C@@H](C)C(C)(C)C)ccc3n2[C@H]2C[C@@]3(CCN(C(=O)C=C)C3)C2)s1" , recorded pIC50 = 9.20

====

Collected from the literature: pIC50 of various compounds toward UniProt P42681.
pIC50: −log10 of the molar value.

Measured pIC50 for this entry "C=CC(=O)N1CCC[C@H]1Cn1nc(-c2ccc(Oc3ccccc3)cc2)c2cnccc21" on UniProt P42681: > 7.00

Measured pIC50 (UniProt P42681), entry "C=CC(=O)N1CC[C@@H](n2nc(-c3ccc(Oc4ccccc4)cc3)c3cncc(C#N)c32)C1" : > 7.00

Value sought: pIC50, system UniProt P42681, item "O=C(CNc1cc(Cl)cc(Cl)c1)N1CC[C@H]2CCN(c3ncnc4[nH]ccc34)[C@H]2C1" . Result: 6.00 to 7.00

Lab note: compound "C=CC(=O)N1CCC[C@@H](n2nc(-c3ccc(Oc4ccccc4)cc3C#N)c3cncnc32)C1" tested on UniProt P42681; recorded pIC50 was < 6.30

Hey, UniProt P42681 data for "C=CC(=O)N1CCC[C@@H](Nc2nnc(C(N)=O)c(Nc3cccc(-n4nccn4)c3)n2)C1" : pIC50 came out at ≥ 8.00

Value sought: pIC50, system UniProt P42681, item "C=CC(=O)N1CC[C@]2(C1)C[C@H](n1c(NC(=O)c3ccc(-c4cncc(NC)c4)s3)nc3ccccc31)C2" . Result: 9.32

// returns pIC50 for "C=CC(=O)N1CC[C@]2(C1)C[C@H](n1c(NC(=O)c3ccc(-c4ccncn4)s3)nc3ccccc31)C2" with UniProt P42681; value = 9.43

====

pIC50: −log10 of the molar value.
The entries below pair compounds with pIC50 values for Tyrosine-protein kinase TXK (Homo sapiens, UniProt P42681), as found in several publications.

Below, each entry is followed by its recorded pIC50 result.
Compound structure	Reported value
C=CC(=O)N1CCC[C@@H](Nc2nnc(C(N)=O)c(Nc3ccc(I)cc3)n2)C1	≥ 8.00
C=CC(=O)N1CCC[C@@H](Nc2nnc(C(N)=O)c(Nc3ccc(C(C)(C)C)cc3)n2)C1	≥ 8.00

The value of pIC50 recorded for "C=CC(=O)N1CCC[C@@H](Nc2nnc(C(N)=O)c(Nc3ccc4ncccc4c3)n2)C1" when tested on Tyrosine-protein kinase TXK (Homo sapiens, UniProt P42681) reads ≥ 8.00

The compound "CC#CC(=O)N1CC[C@@H](Cn2nc(-c3ccc(Oc4ccccc4)cc3)c3cncnc32)C1" , when measured on Tyrosine-protein kinase TXK (Homo sapiens, UniProt P42681), yielded pIC50 of < 6.30

Tested system Tyrosine-protein kinase TXK (Homo sapiens, UniProt P42681); pIC50 recorded for "C=CC(=O)N1CC[C@@H]1Cn1nc(-c2ccc(Oc3ccccc3)cc2)c2cncnc21" was > 7.00

Reported Tyrosine-protein kinase TXK (Homo sapiens, UniProt P42681) pIC50 for item "CC#CC(=O)N1CCC[C@@H]1Cn1nc(-c2ccc(Oc3ccccc3)cc2)c2cncnc21" was < 6.30

Tested on Tyrosine-protein kinase TXK (Homo sapiens, UniProt P42681), the item "C=CC(=O)N1CC[C@]2(C1)C[C@H](n1c(NC(=O)c3ccc(-c4cnco4)s3)nc3cc(N(C)C(=O)C(C)C)ccc31)C2" showed pIC50 equal to 9.52

Tyrosine-protein kinase TXK (Homo sapiens, UniProt P42681) assay, compound "C=CC(=O)N1CC[C@]2(C1)C[C@H](n1c(NC(=O)c3ccc(C(=O)NCC)s3)nc3ccccc31)C2" , recorded pIC50 = 9.03

GET /values?item= "C=CC(=O)N1CC[C@@H](N(C)c2nnc(C(N)=O)c(Nc3ccc(C(C)C)cc3)n2)C1" &system= Tyrosine-protein kinase TXK (Homo sapiens, UniProt P42681) returns pIC50: ≥ 8.00

The reported pIC50 value, Tyrosine-protein kinase TXK (Homo sapiens, UniProt P42681), for "C=CC(=O)N1CCC[C@@H](Nc2nnc(C(N)=O)c(Nc3ccc4ncsc4c3)n2)C1" reads ≥ 8.00
